Assignment: determine reported HEMOGLOBIN for the given molecules.
# Species on record: Rattus norvegicus
# test_method_notes: DrugMatrix - Regimen: Daily Repeat
# Assay type: toxicity, organism-based, Sprague-Dawley
# Set-up: regimen Daily Repeat, gender Male, age 6-8 weeks
# measurement_setup: in vivo, po, 0 mg/kg, 120 h, tissue Blood, route oral GAVAGE, dose level Control, time 5 day, vehicle .5 % CMC
Report as a plain number; the unit G/DL is understood.

Prompt: Query: HEMOGLOBIN; subject: `CC(C)(C)NC(=O)[C@@H]1C[C@@H]2CCCC[C@@H]2CN1C[C@@H](O)[C@H](Cc1ccccc1)NC(=O)[C@H](CC(N)=O)NC(=O)c1ccc2ccccc2n1`
Completion: 13.4

Prompt: Then this molecule: Nc1ccn([C@H]2CC[C@@H](CO)O2)c(=O)n1 [ZALCITABINE]
Completion: 14.18

Prompt: Here is the next molecule: Cc1ccc(/N=C/N(C)/C=N/c2ccc(C)cc2C)c(C)c1 [AMITRAZ]
Completion: 14.27

Prompt: What do we get for OCCN(CCO)c1nc(N2CCCCC2)c2nc(N(CCO)CCO)nc(N3CCCCC3)c2n1 [DIPYRIDAMOLE] ?
Completion: 14.82

Prompt: Now give it for ClC(Br)Br [DIBROMOCHLOROMETHANE] too.
Completion: 12.07

Prompt: // query: NC1=NC(=O)C(c2ccccc2)O1 (centres undefined) [PEMOLINE]
Completion: 14.48

Prompt: Next record, please: CCn1cc(C(=O)O)c(=O)c2cc(F)c(N3CCNCC3)cc21 [NORFLOXACIN]
Completion: 14.27

Prompt: Could you do the same for Cc1nc2n(c(=O)c1CCN1CCC(c3noc4cc(F)ccc34)CC1)CCCC2 [RISPERIDONE] , please?
Completion: 15.83

Prompt: How about this molecule: N=C(N)NCCN1CCCCCCC1 [GUANETHIDINE]
Completion: 14.82
